Test: Ratio of drug level in C57BL/6 mouse liver to plasma at 10 mg/kg, po administered as single dose via gavage measured at 0.5 hrs post dose by LC-MS/MS analysis
Format: ADME, organism-based
parameter: Kp at 0.5 h
One number for each entry.

Report Kp at 0.5 h for CC[C@H]1[C@@H](O)[C@@H]2[C@H](CC[C@]3(C)[C@@H]([C@H](C)CCC(=O)NS(C)(=O)=O)CC[C@@H]23)[C@@]2(C)CC[C@@H](O)C[C@@H]12 please. 53

###

Test: Tmax in C57BL/6 mouse at 10 mg/kg, po administered via gavage
Type: ADME, organism-based
Conditions: in vivo
For each of the compounds below, state its Tmax.
Numbers only, in min.

                               smiles_input  parameter  test_value
0  CC[C@H]1[C@@H](O)[C@@H]2[C@H](CC[C@]3(C)[C@@H]([C@H](C)CCC(=O)NS(C)(=O)=O)CC[C@@H]23)[C@@]2(C)CC[C@@H](O)C[C@@H]12       Tmax          30

Kindly review the next compound as well.
Report Tmax for CC[C@H]1[C@@H](O)[C@@H]2[C@H](CC[C@]3(C)[C@@H]([C@H](C)CCC(=O)O)CC[C@@H]23)[C@@]2(C)CC[C@@H](O)C[C@@H]12 please. 15
